Where do the numbers come from? From patent US20260144788A1.

- study_target: SHP2 protein (Homo sapiens, UniProt Q06124)
- Sequence (Q06124 1-593): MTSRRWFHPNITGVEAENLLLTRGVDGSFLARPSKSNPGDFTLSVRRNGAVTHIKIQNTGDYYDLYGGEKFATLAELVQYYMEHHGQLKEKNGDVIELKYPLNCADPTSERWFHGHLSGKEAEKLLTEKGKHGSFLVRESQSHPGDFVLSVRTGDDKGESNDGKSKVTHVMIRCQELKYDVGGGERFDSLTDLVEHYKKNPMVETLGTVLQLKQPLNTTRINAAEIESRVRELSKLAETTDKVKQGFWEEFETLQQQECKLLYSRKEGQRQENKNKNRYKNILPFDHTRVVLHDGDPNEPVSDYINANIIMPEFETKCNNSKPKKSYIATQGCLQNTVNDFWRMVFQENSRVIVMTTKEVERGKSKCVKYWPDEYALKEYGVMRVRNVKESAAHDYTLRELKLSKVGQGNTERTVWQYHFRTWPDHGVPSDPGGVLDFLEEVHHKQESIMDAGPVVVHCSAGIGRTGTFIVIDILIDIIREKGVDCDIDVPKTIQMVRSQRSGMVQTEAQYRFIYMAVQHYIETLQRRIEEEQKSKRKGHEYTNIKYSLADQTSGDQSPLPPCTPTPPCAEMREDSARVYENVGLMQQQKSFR
- assay_details: Measurement of SHP2 protein degradation in MV-4-11 cells (western blotting)
- Type: cell-based
- Parameters: endogenous in cells
- condition_info: 0.1 μM, harvested after 24 hours
measured_property: SHP2% degradation (%)

compound	SHP2% degradation / %
Cc1ncsc1-c1ccc(CNC(=O)[C@@H]2C[C@@H](O)CN2C(=O)[C@@H](NC(=O)C2(F)CC2)C(C)(C)C)c(O[C@H]2CC[C@H](C(=O)N3CCN(c4nccc(Sc5cnc(N6CCC(C)(CN)CC6)cn5)c4Cl)CC3)CC2)c1 [Example 26]	96.1
Cc1ncsc1-c1ccc(CNC(=O)[C@@H]2C[C@@H](O)CN2C(=O)[C@@H](NC(=O)C2(F)CC2)C(C)(C)C)c(O[C@H]2CC[C@H](C(=O)N3CC(CNc4cccc(Sc5cnc(N6CCC(C)(CN)CC6)cn5)c4Cl)C3)CC2)c1 [Example 18]	98.4
Cc1ncsc1-c1ccc([C@H](C)NC(=O)[C@@H]2C[C@@H](O)CN2C(=O)[C@@H](NC(=O)C2(F)CC2)C(C)(C)C)c(OC2CCN(C(=O)C3CCN(c4nccc(Sc5cnc(N6CCC(C)(CN)CC6)cn5)c4Cl)CC3)CC2)c1 [Example 86]	99.9
Cc1ncsc1-c1ccc(CNC(=O)[C@@H]2C[C@@H](O)CN2C(=O)[C@@H](NC(=O)C2(F)CC2)C(C)(C)C)c(O[C@H]2CC[C@H](C(=O)N3CC(Nc4cccc(Sc5cnc(N6CCC(C)(CN)CC6)cn5)c4Cl)C3)CC2)c1 [Example 11]	97.9

a = Cc1ncsc1-c1ccc(CNC(=O)[C@@H]2C[C@@H](O)CN2C(=O)[C@@H](NC(=O)C2(F)CC2)C(C)(C)C)c(O[C@H]2CC[C@H](C(=O)N3CCC(Nc4nccc(Sc5cnc(N6CCC(C)(CN)CC6)cn5)c4Cl)CC3)CC2)c1 [Example 23]
b = Cc1ncsc1-c1ccc(CNC(=O)[C@@H]2C[C@@H](O)CN2C(=O)[C@@H](NC(=O)C2(F)CC2)C(C)(C)C)c(O[C@H]2CC[C@H](CN3CC(Nc4cccc(Sc5cnc(N6CCC(C)(CN)CC6)cn5)c4Cl)C3)CC2)c1 [Example 5]
Would you let me know which has the greater SHP2% degradation value, a or b ? The response must carry the label of the picked entry. a
(a: 99.8%, b: 62.0%)
